Target: MET (Homo sapiens, UniProt P08581)
Construct: endogenous in cells
Sequence (P08581 25-1390): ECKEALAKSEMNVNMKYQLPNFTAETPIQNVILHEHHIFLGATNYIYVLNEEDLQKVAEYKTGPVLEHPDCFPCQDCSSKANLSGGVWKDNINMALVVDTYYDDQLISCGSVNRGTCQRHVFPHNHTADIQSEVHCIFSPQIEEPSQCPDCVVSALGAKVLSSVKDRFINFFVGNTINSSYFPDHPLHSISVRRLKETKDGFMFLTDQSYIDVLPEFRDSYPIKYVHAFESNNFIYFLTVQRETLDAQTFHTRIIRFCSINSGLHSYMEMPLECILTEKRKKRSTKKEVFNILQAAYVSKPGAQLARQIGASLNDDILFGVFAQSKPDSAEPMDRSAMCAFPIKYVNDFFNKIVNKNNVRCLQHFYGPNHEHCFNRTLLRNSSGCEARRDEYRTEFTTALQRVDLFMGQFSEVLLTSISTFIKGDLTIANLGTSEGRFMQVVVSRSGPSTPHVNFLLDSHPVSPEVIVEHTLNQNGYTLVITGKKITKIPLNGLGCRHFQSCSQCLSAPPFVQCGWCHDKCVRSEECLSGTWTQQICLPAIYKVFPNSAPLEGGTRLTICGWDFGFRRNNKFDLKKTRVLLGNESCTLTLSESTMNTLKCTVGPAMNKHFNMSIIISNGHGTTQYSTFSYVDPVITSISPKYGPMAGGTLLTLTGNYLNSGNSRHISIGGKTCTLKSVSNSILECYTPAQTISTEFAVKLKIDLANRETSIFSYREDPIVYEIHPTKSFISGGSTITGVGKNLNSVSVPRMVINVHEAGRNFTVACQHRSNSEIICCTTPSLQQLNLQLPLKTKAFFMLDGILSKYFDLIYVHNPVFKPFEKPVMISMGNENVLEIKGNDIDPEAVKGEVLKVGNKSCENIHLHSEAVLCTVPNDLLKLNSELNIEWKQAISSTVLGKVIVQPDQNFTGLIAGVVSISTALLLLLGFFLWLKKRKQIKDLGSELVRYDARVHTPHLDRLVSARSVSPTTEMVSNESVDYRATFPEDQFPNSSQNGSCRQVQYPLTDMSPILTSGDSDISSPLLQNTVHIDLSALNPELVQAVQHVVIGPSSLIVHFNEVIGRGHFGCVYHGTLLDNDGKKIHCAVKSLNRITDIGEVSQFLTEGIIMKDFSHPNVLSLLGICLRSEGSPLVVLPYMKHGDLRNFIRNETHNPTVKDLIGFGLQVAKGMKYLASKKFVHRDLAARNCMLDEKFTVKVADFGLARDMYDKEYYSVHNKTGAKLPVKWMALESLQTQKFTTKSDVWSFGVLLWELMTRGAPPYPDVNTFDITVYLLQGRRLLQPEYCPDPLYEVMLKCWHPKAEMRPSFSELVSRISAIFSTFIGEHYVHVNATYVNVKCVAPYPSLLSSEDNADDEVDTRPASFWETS
Assay: Test C: inhibition of the autophosphorylation of MET, ELISA technique (pppY1230, 1234, 1235), MKN45 cells
Description: C) Inhibition of the Autophosphorylation of MET; ELISA Technique (pppY1230, 1234, 1235) a) Cellular lysates: Sow the MKN45 cells in a 96-well plate (Cell coat BD polylysine) at 20 000 cells/well under 200 μl of medium RPMI+10% FCS+1% L-glutamine. Leave to adhere to the incubator for 24 h. […] Stop the reaction with 100 μl of stop solution. Read at once at […] 0.1 second in the Wallac Victor plate reader. […]
Structures can show the parent of a compound that is named as a salt.
Reported Metric: IC50

Challenge: // query IC50 value for entry CCN(CC)CCOC(=O)Nc1nc2cc(F)c(OC(C)c3c(Cl)ccc(F)c3Cl)cc2s1 (stereo not shown)
Response given: 0.5 to 10 µM

Challenge: Which IC50 value belongs to CC(Oc1ccc2nc(NC(=O)NCCN3CCN(C)CC3)sc2c1)c1c(Cl)ccc(F)c1Cl (stereo not shown) ?
Response given: < 0.5 µM

Challenge: Need IC50 of CC(Oc1cc2sc(NC(=O)CCCN3CCCC3)nc2cc1F)c1c(Cl)ccc(F)c1Cl (stereo not shown) , thanks.
Response given: < 0.5 µM

Challenge: Consider the molecule shown here: C[C@@H](Oc1cc2sc(NC(=O)NCCN3CCOCC3)nc2cc1F)c1c(Cl)ccc(F)c1Cl (single isomer, unassigned) [Example 33] What is its recorded IC50?
Response given: 0.5 to 10 µM

Challenge: Reported IC50, molecule CC(Oc1cc2sc(NC(=O)NCCCN)nc2cc1F)c1c(Cl)ccc(F)c1Cl (stereo not shown) : ____
Response given: < 0.5 µM

***
Challenge: Need IC50, item CC(Oc1ccc2nc(NC(=O)NCCC3CCNCC3)sc2c1)c1c(Cl)ccc(F)c1Cl (stereo not shown) [Example 39, trifluoroacetate]
Response given: < 0.5 µM

Challenge: // query IC50 value for entry CC(Oc1ccc2nc(NC(=O)NCCN3CCOCC3)sc2c1)c1c(Cl)ccc(F)c1Cl (single isomer, unassigned) [Example 26]
Response given: 0.5 to 10 µM
